Reported TGI values are given for each entry in this list.
System: K-562 leukemia
procedure summary: NCI tumour cell line growth inhibition, 48 h
measured endpoint: TGI

COc1cc2c(cc1O)CC[C@@H]1[C@@H]2CC[C@]2(C)[C@@H](OCCN(C)C)CC[C@@H]12	0.685 µM
CCOC(=O)C1=NN(c2ccc(C)cc2)C2=CC(C)=NN(C)C(=S)N21	> 100 µM
CC(C)CC(NC(=O)OC(C)(C)C)C(=O)Nc1ccc(Nc2nc(F)nc(-c3c4ccccc4c4n3CCS4)n2)cc1 (stereo unspecified)	57.8 µM
[N-]=[N+]=CC(=O)c1ccccc1C#CCCc1ccccc1	> 100 µM
Cc1cn(C2CC(O)C(COC(=O)NCCC(F)(F)C(F)(F)C(F)(F)C(F)(F)F)O2)c(=O)[nH]c1=O (stereo unspecified)	> 100 µM
O=C1CSC(c2ccc([N+](=O)[O-])cc2)N1c1ccc(-n2c(-c3ccccc3)nc3ccccc3c2=O)cc1 (stereo unspecified)	> 100 µM
COc1cccc2c1C(=O)c1c(O)c3c(c(O)c1C2=O)CC(O)(C(O)CO)CC3OC1CC(N2CCOCC2)C(O)C(C)O1 (stereo unspecified)	1.61 µM
COC(=O)CNS(=O)(=O)c1ccc(-c2c3nc(c(-c4ccc(S(=O)(=O)NCC(=O)OC)cc4)c4ccc([nH]4)c(-c4ccc(S(=O)(=O)NCC(=O)OC)cc4)c4nc(c(-c5ccc(S(=O)(=O)NCC(=O)OC)cc5)c5ccc2[nH]5)C=C4)C=C3)cc1	> 100 µM
C=CCOC(=O)NC1C(OC(C)[C@@H](NC(=O)OCc2ccccc2)C(=O)OC(C)(C)C)OC(COC(C)=O)C(OC(C)=O)C1OC(C)=O (stereo partly specified)	> 100 µM
CC(=O)OCC1OC(OC2CC3C(C)(C)C(OC(C)=O)CC[C@]3(C)C3CCC45CC4(CCC5[C@@H](C)C[C@H](O)C(O)C(C)(C)O)[C@]23C)C(O)C(O)C1O (stereo partly specified)	> 10 µM
O=C(NC(=O)c1cn(CCN(CCO)C(=O)NCCCCCCNC(=O)N(CCO)CCn2cc(C(=O)NC(=O)OCc3ccccc3)c(=O)[nH]c2=O)c(=O)[nH]c1=O)OCc1ccccc1	> 100 µM
